The values you see were collected from paper PMC12136037.

- TESTED_SYSTEM: ~100 representative kinases (Homo sapiens)
- Construct: Recombinant protein kinase domains with a concentration of 2 μM
- METHOD_NOTES: DSF 100 kinase selectivity screen;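 further: compound tested at 20 µM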
- Format: binding
- EXPERIMENTAL_CONTEXT: Protein AAK1; average of three replicates
The entries below come with measured dTm values attached.
Give a bare numeral; the unit K is implied.

Check out these entries, answers already filled in.
{"MOLECULE": "CC(C)(C)c1cc(NC(=O)Nc2cccc(-c3c[nH]c4ncnc(N5CCOCC5)c34)c2)n(-c2ccc3ncccc3c2)n1 [Compound 28]", "dTm (K)": 6.38}
{"MOLECULE": "O=C(Nc1cccc(-c2c[nH]c3ncnc(N4CCOCC4)c23)c1)C1(C(=O)Nc2ccc(F)c(Cl)c2)CC1 [Compound 18]", "dTm (K)": 4.45}
{"MOLECULE": "Cc1cc(NC(=O)C2(C(=O)Nc3cccc(-c4c[nH]c5ncnc(N6CCOCC6)c45)c3)CC2)ccc1F [Compound 20]", "dTm (K)": 5.13}
{"MOLECULE": "Cc1ccc(NC(=O)C2(C(=O)Nc3cccc(-c4c[nH]c5ncnc(N6CCOCC6)c45)c3)CC2)cc1 [Compound 14]", "dTm (K)": 2.28}

The molecule listed as C[C@@H]1CN(c2cc(-c3n[nH]c4ccc(OC5(C)CC5)cc34)ncn2)C[C@H](C)O1 [MLi2] shows dTm equal to 1.29

Value of measured dTm for the entry CCc1ccc(NC(=O)C2(C(=O)Nc3cccc(-c4c[nH]c5ncnc(N6CCOCC6)c45)c3)CC2)cc1 [Compound 15] : 2.03

// field: dTm; key: Cc1ccc(-n2nc(C(C)(C)C)cc2NC(=O)Nc2cccc(-c3c[nH]c4nc(Cl)nc(N5CCOCC5)c34)c2)cc1 [Compound 30] ; value = 0.53

---

- TESTED_SYSTEM: ~100 representative kinases (Homo sapiens, UniProt P51955)
- Construct: Recombinant protein kinase domains with a concentration of 2 μM
- Sequence (P51955 1-445): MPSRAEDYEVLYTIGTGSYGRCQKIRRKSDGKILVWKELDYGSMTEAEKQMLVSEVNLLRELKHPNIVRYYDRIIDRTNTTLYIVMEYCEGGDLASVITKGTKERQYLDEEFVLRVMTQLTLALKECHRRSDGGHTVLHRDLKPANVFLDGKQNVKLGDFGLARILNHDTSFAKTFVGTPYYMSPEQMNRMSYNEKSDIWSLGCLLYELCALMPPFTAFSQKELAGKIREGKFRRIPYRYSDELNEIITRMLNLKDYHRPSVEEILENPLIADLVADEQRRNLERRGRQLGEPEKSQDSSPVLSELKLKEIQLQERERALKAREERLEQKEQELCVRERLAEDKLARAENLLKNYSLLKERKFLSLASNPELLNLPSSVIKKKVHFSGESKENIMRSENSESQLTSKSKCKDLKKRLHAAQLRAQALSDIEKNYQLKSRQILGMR
- METHOD_NOTES: DSF 100 kinase selectivity screen;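 further: compound tested at 20 µM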
- Assay type: binding
- EXPERIMENTAL_CONTEXT: protein NEK2; average of three replicates
# if value of dTm reaches 0.05 K, tag true (1); if it stays below, tag false (0)

Look over these answered cases.
{"COMPOUND": "Cc1ccc(-n2nc(C(C)(C)C)cc2NC(=O)Nc2cccc(-c3c[nH]c4ncnc(N5CCOCC5)c34)c2)cc1 [Compound 29]", "TESTED_SYSTEM": "~100 representative kinases (Homo sapiens, UniProt P51955)", "CLASS_NAME": "false (0)"}
{"COMPOUND": "Cc1cc(F)ccc1NC(=O)C1(C(=O)Nc2cccc(-c3c[nH]c4ncnc(N5CCOCC5)c34)c2)CC1 [Compound 24]", "TESTED_SYSTEM": "~100 representative kinases (Homo sapiens, UniProt P51955)", "CLASS_NAME": "true (1)"}
{"COMPOUND": "O=C(Nc1cccc(-c2c[nH]c3ncnc(N4CCOCC4)c23)c1)C1(C(=O)Nc2ccc(F)c(F)c2)CC1 [Compound 17]", "TESTED_SYSTEM": "~100 representative kinases (Homo sapiens, UniProt P51955)", "CLASS_NAME": "true (1)"}
{"COMPOUND": "O=C(Nc1cccc(-c2c[nH]c3ncnc(N4CCOCC4)c23)c1)c1cccn(-c2ccc(F)cc2)c1=O [Compound 4]", "TESTED_SYSTEM": "~100 representative kinases (Homo sapiens, UniProt P51955)", "CLASS_NAME": "true (1)"}
{"COMPOUND": "CN[C@@H]1C[C@H]2O[C@@](C)([C@@H]1OC)n1c3ccccc3c3c4c(c5c6ccccc6n2c5c31)C(=O)NC4 [Staurosporine]", "TESTED_SYSTEM": "~100 representative kinases (Homo sapiens, UniProt P51955)", "CLASS_NAME": "true (1)"}

Turning now to a further record.
Tell me whether dTm is at least 0.05 K here: CC(=O)N1CCN(c2nc(Cl)nc3[nH]cc(-c4cccc(NC(=O)Nc5cc(C(C)(C)C)nn5-c5ccc(C)cc5)c4)c23)CC1 [Compound 31] false (0)

---

- TESTED_SYSTEM: ~100 representative kinases (Homo sapiens)
- Construct: Recombinant protein kinase domains with a concentration of 2 μM
- METHOD_NOTES: DSF 100 kinase selectivity screen;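 further: compound tested at 20 µM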
- Format: binding
- EXPERIMENTAL_CONTEXT: Protein STK39; DSF; average of three replicates
VALUE_TYPE: dTm
Quick note: number first, unit second.

{"MOLECULE": "CC(C)(C)c1cc(NC(=O)Nc2cccc(-c3c[nH]c4ncnc(N5CCOCC5)c34)c2)n(-c2ccc3ncccc3c2)n1", "dTm": "7.55 K"}

The molecule identified as `O=C(Nc1cccc(-c2c[nH]c3ncnc(N4CCOCC4)c23)c1)c1cccn(-c2ccc(F)cc2)c1=O` registered its dTm at 4.19 K

Form: molecule = COc1cc2c(Oc3ccc(NC(=O)C4(C(=O)Nc5ccc(F)cc5)CC4)cc3F)ccnc2cc1OCCCN1CCOCC1 [Foretinib, reference compound] ; dTm = 0.70 K

Briefly, dTm measured for `Cc1cc(NC(=O)C2(C(=O)Nc3ccc(F)cc3)CC2)cc(-c2c[nH]c3ncnc(N4CCOCC4)c23)c1` : 1.36 K

dTm reading for `COc1cc(NC(=O)C2(C(=O)Nc3cccc(-c4c[nH]c5ncnc(N6CCOCC6)c45)c3)CC2)ccc1F` : 1.92 K

dTm recorded for this molecule, `COc1cc(S(C)(=O)=O)ccc1Nc1nc(N(C)C)c2c(Cl)c[nH]c2n1` , is 3.58 K

dTm reading for `Cc1ccc(C(=O)Nc2ccc(CN3CCN(C)CC3)c(C(F)(F)F)c2)cc1C#Cc1c[nH]c2ncnc(N3CCOCC3)c12` : 3.69 K

---

- TESTED_SYSTEM: ~100 representative kinases (Homo sapiens)
- Construct: Recombinant protein kinase domains with a concentration of 2 μM
- METHOD_NOTES: DSF 100 kinase selectivity screen;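 further: compound tested at 20 µM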
- Type: binding
- EXPERIMENTAL_CONTEXT: Protein ABL1; average of three replicates
VALUE_TYPE: dTm (K)
Number only, in K; omit the unit.

Looking up `C[C@@H]1CN(c2cc(-c3n[nH]c4ccc(OC5(C)CC5)cc34)ncn2)C[C@H](C)O1` , I found its dTm recorded as 0.50

Entry `O=C(Nc1cccc(-c2c[nH]c3ncnc(N4CCOCC4)c23)c1)c1cccn(-c2ccc(F)cc2)c1=O` ; dTm = 2.49

So for `CCNc1nc(Nc2cc(F)c(C(=O)N3CCOCC3)cc2OC)ncc1C(F)(F)F` , the logged dTm turned out to be 0.74

The value of dTm measured for the compound `CCSc1nc(NC)c2c(-c3cccc(NC(=O)Nc4cc(C(C)(C)C)nn4-c4ccc(C)cc4)c3)c[nH]c2n1` turned out to be 2.07

Given item `Cn1cc(-c2c[nH]c3ncnc(N4CCOCC4)c23)cc1C#N` , the value recorded as its dTm is 3.25

`CCc1ccc(NC(=O)C2(C(=O)Nc3cccc(-c4c[nH]c5ncnc(N6CCOCC6)c45)c3)CC2)cc1` yielded dTm of 1.94

Note to self: dTm recorded for `CC(C)(C)c1cc(NC(=O)Nc2cccc(-c3c[nH]c4ncnc(N5CCOCC5)c34)c2)n(-c2ccc3ncccc3c2)n1` was 7.77

Please fill in: dTm reported for `CC(C)(C)c1cccc(NC(=O)C2(C(=O)Nc3cccc(-c4c[nH]c5ncnc(N6CCOCC6)c45)c3)CC2)c1` = 2.30

Data point: `Cc1ccc(C(=O)Nc2ccc(CN3CCN(C)CC3)c(C(F)(F)F)c2)cc1C#Cc1c[nH]c2ncnc(N3CCOCC3)c12` ; dTm = 7.59

The value of dTm measured for the compound `O=C(Nc1cc(F)cc(Br)c1)C1(C(=O)Nc2cccc(-c3c[nH]c4ncnc(N5CCOCC5)c34)c2)CC1` turned out to be 1.02
